As shown below, each of these compounds has a reported inhibition value.
# tested_target: Glucose transporter (Leishmania mexicana)
# assay: ST_JUDE_LEISH: Cytotoxicity at 2uM final concentration against transgenic Leishmania Mexicana promastigotes LmGT2 that are glucose transport deficient and complemented with the L. Mexicana glucose transporter 2. Activity is measured by DNA content using SYBR green in vitro
# Format: functional
measured_metric: inhibition

>>> observed_result("COc1ccc(C2C(C(=O)Nc3ccccc3)=C(C)Nc3c(C(=O)Nc4ccccc4)cnn32)cc1 (stereo not given)")
"0.09%"
>>> observed_result("C[C@@H](Oc1cc(-n2cnc3ccc(OCC4CCN(S(C)(=O)=O)CC4)cc32)sc1C(N)=O)c1ccccc1C(F)(F)F")
"4.63%"
>>> observed_result("Oc1ccc2c(CNCCc3ccccc3)c(O)ccc2c1CNCCc1ccccc1")
"6.71%"
>>> observed_result("CCCN(CCC)C(=S)N/N=C1/C(=O)Nc2ccccc21")
"-4.34%"
>>> observed_result("O=C(COc1ccccc1Cc1ccccc1)Nc1cc(Cl)ccc1-n1cncn1")
"3.15%"
>>> observed_result("Cc1cccc(-n2c(Nc3ccc(C)c(Cl)c3)nc3ccc(S(=O)(=O)NC(C)C(C)C)cc32)c1 (stereo not given)")
"-0.08%"
>>> observed_result("Cc1cc(N)cc2nc(-c3ccc(N)cc3)[nH]c12")
"1.68%"
>>> observed_result("CC(C)CNCc1ccc(-c2cccc(CNC3CCN(Cc4ccccc4)CC3)c2)cc1")
"5.23%"
>>> observed_result("c1ccc2ncc(CNCCCCCCCCNCc3cnc4ccccc4c3)cc2c1")
"0.09%"
>>> observed_result("CCC(Cc1ccccc1)c1cc(O)c(Cc2ccc(-c3ccccc3)cc2)c(=O)o1 (stereo not given)")
"0.95%"
>>> observed_result("COc1cc(C(=O)NC2CCc3ccccc32)cc(Cl)c1OC (stereo not given)")
"-0.41%"
>>> observed_result("O=C(NC1CCCCN(Cc2ccccc2O)C1)c1ccc(-c2ccccc2)cc1 (stereo not given)")
"2.4%"
>>> observed_result("O=C1CSc2ccc(CNC3CCN(CCc4c(Cl)cnc5ccc(Cl)cc45)CC3)nc2N1")
"-1.85%"
>>> observed_result("CCc1cc2c(cc1OCCN(C)C)N(C(=O)Nc1ccc(-c3ccncc3)c(Cl)c1)CC2")
"3.08%"
>>> observed_result("COc1ccc2nccc([C@@H](O)CN3CCC(NCc4cc5ccccc5[nH]4)CC3)c2n1")
"62.5%"
>>> observed_result("CCCCCNc1nc2nc(N)nc(N)c2nc1-c1ccccc1")
"0.23%"
>>> observed_result("Nc1nc(N)c2c(Oc3ccc(Cl)c(Cl)c3)cccc2n1")
"-3.94%"
>>> observed_result("O=S(=O)(NCCN1CCCC1)c1ccc(-c2cccc(CNCc3ccsc3)c2)s1")
"-1.72%"
>>> observed_result("Cn1cncc1C(=O)Nc1cccc(-c2ccc(-c3nc4cc(F)ccc4[nH]3)s2)c1")
"-0.1%"
>>> observed_result("CCCCN(CCCC)CCCCNc1c2ccccc2nc2ccccc12")
"12.3%"
>>> observed_result("CCCCCCN1CCC(NCc2ccc(C)cc2)CC1")
"17.6%"
>>> observed_result("O=C(NCCCCCN1CCC(c2c[nH]c3ccccc23)CC1)Nc1ccc(Br)cc1")
"-0.48%"
>>> observed_result("Cc1ccc(NS(=O)(=O)c2cccs2)cc1-c1cccc(C(=O)Nc2ccc(F)cc2)c1")
"1.16%"
>>> observed_result("CS(=O)(=O)Cc1cccc(Nc2ncc(Cl)c(Nc3cccnc3C(N)=O)n2)c1")
"15.6%"
>>> observed_result("Cc1ncc(CN2CCC(C(=O)Nc3ccc(-c4nc5ccccc5o4)cc3)CC2)s1")
"-0.97%"
>>> observed_result("Fc1ccc2[nH]c(-c3ccc(-c4ccc(CNCCN5CCNCC5)cc4)s3)nc2c1")
"-0.23%"
>>> observed_result("COc1cc2nc(-c3ccc(Br)cc3)cc(N)c2cc1OC")
"29.1%"
>>> observed_result("CC(C)CNCc1ccc(-c2cccc(CN(CCN(C)C)C(=O)NCCc3ccccc3)c2)cc1")
"0.23%"
>>> observed_result("CC1CN(Cc2ccccc2)CCN1c1ccc(NC(=O)c2cccs2)cc1 (stereo not given)")
"10.8%"
>>> observed_result("COc1ccc(Cn2c(Nc3cccc(C(F)(F)F)c3)nc3cc(C(=O)NCCN4CCCC4)cnc32)cc1Cl")
"15.6%"
>>> observed_result("CCC(C)CN1CCN(c2ccc(NC(=O)c3cccs3)cc2)CC1C (stereo not given)")
"1.01%"
>>> observed_result("CNC(=O)CNC(=O)COc1cccc2ccccc12")
"2.7%"
>>> observed_result("CN(C)CCOc1ccc2c(c1)OC(C)(C)C=C2c1cccc2ccccc12")
"3.75%"
>>> observed_result("Cn1c(NC2CCN(CC3CCN(C(=O)/C=C/c4ccc(Cl)c(Cl)c4)CC3)CC2)nc2ccccc21")
"81.9%"
>>> observed_result("COc1ccc(C(=O)N2CCN(c3ccc([N+](=O)[O-])c(NC4CC4)c3)CC2)cc1Br")
"12.6%"
